- experimental_target: human C5aR(CD88) (Homo sapiens, UniProt P21730)
- Construct: expressed in transfected cells; host or cells: rat basophilic leukemia cells (RBL)
- Sequence (P21730 whole entry): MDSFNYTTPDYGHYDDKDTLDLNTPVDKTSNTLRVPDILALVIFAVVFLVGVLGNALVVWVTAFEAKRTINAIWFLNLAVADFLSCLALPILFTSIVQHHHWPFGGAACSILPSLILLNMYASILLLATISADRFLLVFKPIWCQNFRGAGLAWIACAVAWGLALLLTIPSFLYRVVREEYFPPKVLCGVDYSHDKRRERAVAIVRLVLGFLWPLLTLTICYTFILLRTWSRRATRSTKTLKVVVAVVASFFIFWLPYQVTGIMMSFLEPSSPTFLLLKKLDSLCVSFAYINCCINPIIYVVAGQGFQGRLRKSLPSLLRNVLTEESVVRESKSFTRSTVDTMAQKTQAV
- test_details: Determination of the IC50 value in an enzyme release assay (functional assay, antagonistic activity)
- Format: cell-based
- recorded_conditions: antagonistic activity; IC50 group in enzyme release assay, RBL cells expressing human C5aR(CD88); read-out: activity (group)
Positions of bridges follow the written chain, without caps; N, C: chain ends. Non-standard residues stand in square brackets, D forms with d. Residues, ends and D or L forms follow the SMILES beside them. Bta = N[C@@H](Cc1csc2ccccc12)C(=O)O; Hyp = O=C(O)[C@@H]1C[C@@H](O)CN1; d(hLeu) = CC(C)CC[C@@H](N)C(=O)O; dCha = N[C@H](CC1CCCCC1)C(=O)O; Orn = NCCC[C@H](N)C(=O)O; Aze = O=C(O)[C@@H]1CCN1; Nva = CCC[C@H](N)C(=O)O

compound: CC(=O)N[C@@H](Cc1ccccc1)C(=O)N[C@H]1CCCNC(=O)[C@H](CC(C)C)NC(=O)[C@H](Cc2c[nH]c3ccccc23)NC(=O)[C@@H](CC2CCCCC2)NC(=O)[C@@H]2CCCN2C1=O [Compound 193, Ac-Phe-[Orn-Pro-cha-Trp-Leu]] (Ac-F[Orn]P[dCha]WL; lactam 2-C)
IC50: 50 to 200 nM
//
compound: CC(=O)N[C@@H](Cc1ccccc1)C(=O)N[C@H]1CCCNC(=O)[C@H](Cc2ccccc2)NC(=O)[C@H](Cc2c[nH]c3ccccc23)NC(=O)[C@@H](CCC(C)C)NC(=O)[C@@H]2C[C@@H](O)CN2C1=O [Compound 181, Ac-Phe-[Orn-Hyp-hle-Trp-Phe]] (Ac-F[Orn][Hyp][d(hLeu)]WF; lactam 2-C)
IC50: 20 to 50 nM
//
compound: CC(=O)N[C@@H](CCCCN)C(=O)N[C@@H](Cc1ccccc1)C(=O)N[C@@H](CCCN)C(=O)N1CC[C@H]1C(=O)N[C@H](CC1CCCCC1)C(=O)N[C@@H](Cc1csc2ccccc12)C(=O)N[C@@H](Cc1ccccc1)C(N)=O [Compound 160, Ac-Lys-Phe-Orn-Aze-cha-Bta-Phe-NH2] (Ac-KF[Orn][Aze][dCha][Bta]F-NH2)
IC50: 20 to 50 nM
//
compound: CC(=O)N[C@@H](Cc1ccccc1)C(=O)N[C@@H](CCCN)C(=O)N1CCC[C@H]1C(=O)N[C@H](CCC(C)C)C(=O)N[C@@H](Cc1csc2ccccc12)C(=O)N[C@H](Cc1ccccc1)C(=O)O [Compound 281, Ac-Phe-Orn-Pro-hle-Bta-phe-OH] (Ac-F[Orn]P[d(hLeu)][Bta][dF]-OH)
IC50: 50 to 200 nM
//
compound: CCC[C@@H]1NC(=O)[C@H](Cc2c[nH]c3ccccc23)NC(=O)[C@@H](CC2CCCCC2)NC(=O)[C@@H]2CCCN2C(=O)[C@@H](NC(=O)[C@H](Cc2ccccc2)NC(C)=O)CCCNC1=O [Compound 31, Ac-Phe-[Orn-Pro-cha-Trp-Nva]] (Ac-F[Orn]P[dCha]W[Nva]; lactam 2-C)
IC50: 10 to 20 nM
//
compound: CC(=O)N[C@@H](Cc1ccccc1)C(=O)N[C@H]1CCCNC(=O)[C@H](Cc2ccccc2)NC(=O)[C@H](Cc2csc3ccccc23)NC(=O)[C@@H](CCC(C)C)NC(=O)[C@@H]2CCCN2C1=O [Compound 197, Ac-Phe-[Orn-Pro-hle-Bta-Phe]] (Ac-F[Orn]P[d(hLeu)][Bta]F; lactam 2-C)
IC50: 50 to 200 nM
//
compound: CC(=O)N[C@@H](CO)C(=O)N[C@@H](Cc1ccccc1)C(=O)N[C@@H](CCCN)C(=O)N1CC[C@H]1C(=O)N[C@H](CC1CCCCC1)C(=O)N[C@@H](Cc1csc2ccccc12)C(=O)N[C@@H](Cc1ccccc1)C(N)=O [Compound 310, Ac-Ser-Phe-Orn-Aze-cha-Bta-Phe-NH2] (Ac-SF[Orn][Aze][dCha][Bta]F-NH2)
IC50: 10 to 20 nM
